The following compounds are shown together with reported EC50 values.
# Test system: CQR Dd2 strain of P. falciparum
# protocol: microbe, parasite or virus in culture
# Type: cell-based
# experimentalConditions: Plasmodium falciparum, DD2, 72 h, read-out: Antiplasmodial activity EC50 Dd2, CQR Dd2 strain, 72 h incubation, at least three independent experiments

Check out these entries, answers already filled in.
Clc1ccc2nc(/C=C/c3ccncc3)cc(-n3cc(CN4CCOCC4)nn3)c2c1    > 8 µM
CN1CCN(Cc2cn(-c3cc(/C=C/c4ccncc4)nc4ccc(Cl)cc34)nn2)CC1    > 8 µM

Now take the following compound into account.
O=C1c2ccccc2C(=O)N1Cc1cn(-c2cc(/C=C/c3ccncc3)nc3ccc(Cl)cc23)nn1 tested on CQR Dd2 strain of P. falciparum gave EC50: > 8 µM

###

# protocol: in vitro
# experimentalConditions: human
parameter: EC50 at 48 h (µM)
Hi! Could you send only the number? It should be in µM, unit omitted.

Briefly, EC50 at 48 h measured for CCN(CC)CCCC(C)Nc1ccnc2cc(Cl)ccc12 (stereo not shown) : 10.4
